- Test system: Malassezia pachydermatis (ATCC14522 strain)
- protocol notes: Malassezia otitis externa effect test (dog) (Test Example 3)
- Assay type: in vivo, dog (Beagle)
- Parameters: scale not given here
- condition label: right ear, baseline 7 days after inoculation, before 500 ppm agent solution
measurement name: Total score (redness, earwax, itching, rash) Immediately before treatment
Answer with the value's number alone.

The following compounds have reported results that may help.
INSERT INTO results (compound, assay_value) VALUES
  ('Cc1ccc(-c2nc(C#N)[nH]c2Cl)cc1 [Compound No. 1]', 3),
  ('Cc1ccc(-c2nc(C#N)[nH]c2Cl)cc1Cl [Compound No. 6]', 3),
  ('Cc1cc(-c2nc(C#N)[nH]c2Cl)ccc1Cl [Compound No. 7]', 3);

As a next step, examine the compound that follows.
Entry under test: Cc1ccc(-c2nc(C#N)n(O)c2Cl)cc1 [Compound No. 9] . Its Total score (redness, earwax, itching, rash) Immediately before treatment was 3
